assay-comment: Plasma pharmacokinetics of ATV and metabolites in BDC and UCC monkeys (LC-MS/MS)
Format: in vivo, cynomolgus macaques
condition-description: male, cynomolgus, cynomolgus monkey, plasma, po, 30 mg/kg, plasma, UCC monkeys (n = 3), 30 mg/kg oral dose of ATV, ± standard deviation; read-out: AUC0‐24h
readout: AUC (µM·h)
API: value field is a number in µM·h; no unit string.

For the compound CC(C)c1c(C(=O)Nc2ccccc2O)c(-c2ccccc2)c(-c2ccc(F)cc2)n1CC[C@@H]1C[C@@H](O)CC(=O)O1 [2‐OH ATV‐L, 2‐hydroxyatorvastatin lactone] , what AUC is on record?
0.035

Consider next the compound CC(C)c1c(C(=O)Nc2ccccc2O)c(-c2ccccc2)c(-c2ccc(F)cc2)n1CC[C@@H](O)C[C@@H](O)CC(=O)O [2‐OH ATV, 2‐hydroxyatorvastatin] in the same way.
0.057

====

Would you kindly list Concentration in bile for each of these compounds?
assay-comment: Concentration of ATV and metabolites in monkey bile obtained by BDC and UCC (LC-MS/MS)
Assay type: in vivo, cynomolgus macaques
condition-description: UCC monkeys, 4‐5 h, 30 mg/kg ATV orally, ± standard deviation
API: value field is a number in µM; no unit string.

For the compound CC(C)c1c(C(=O)Nc2ccccc2O)c(-c2ccccc2)c(-c2ccc(F)cc2)n1CC[C@@H](O)C[C@@H](O)CC(=O)O [2‐OH ATV, 2‐hydroxyatorvastatin] , what Concentration in bile is on record?
334

Consider next the compound CC(C)c1c(C(=O)Nc2ccc(O)cc2)c(-c2ccccc2)c(-c2ccc(F)cc2)n1CC[C@@H]1C[C@@H](O)CC(=O)O1 [4‐OH ATV‐L, 4‐hydroxyatorvastatin lactone] in the same way.
9

Consider next the compound CC(C)c1c(C(=O)Nc2ccccc2O)c(-c2ccccc2)c(-c2ccc(F)cc2)n1CC[C@@H]1C[C@@H](O)CC(=O)O1 [2‐OH ATV‐L, 2‐hydroxyatorvastatin lactone] in the same way.
73

Consider next the compound CC(C)c1c(C(=O)Nc2ccc(O)cc2)c(-c2ccccc2)c(-c2ccc(F)cc2)n1CC[C@@H](O)C[C@@H](O)CC(=O)O [4‐OH ATV, 4‐hydroxyatorvastatin] in the same way.
271

====

assay-comment: Concentration of ATV and metabolites in monkey bile obtained by BDC and UCC (LC-MS/MS)
Format: in vivo, cynomolgus macaques
condition-description: BDC monkeys, 8‐24 h, 30 mg/kg ATV orally, ± standard deviation
Marks after values point to notes of the source that are not given here.
Would you kindly list Concentration in bile for each of these molecules?

For the molecule CC(C)c1c(C(=O)Nc2ccc(O)cc2)c(-c2ccccc2)c(-c2ccc(F)cc2)n1CC[C@@H](O)C[C@@H](O)CC(=O)O [4‐OH ATV, 4‐hydroxyatorvastatin] , what Concentration in bile is on record?
181 ± 29 µmol/L

Consider next the molecule CC(C)c1c(C(=O)Nc2ccccc2O)c(-c2ccccc2)c(-c2ccc(F)cc2)n1CC[C@@H]1C[C@@H](O)CC(=O)O1 [2‐OH ATV‐L, 2‐hydroxyatorvastatin lactone] in the same way.
18 ± 19 µmol/L

Consider next the molecule CC(C)c1c(C(=O)Nc2ccc(O)cc2)c(-c2ccccc2)c(-c2ccc(F)cc2)n1CC[C@@H]1C[C@@H](O)CC(=O)O1 [4‐OH ATV‐L, 4‐hydroxyatorvastatin lactone] in the same way.
2 ^b μmol/L

Consider next the molecule CC(C)c1c(C(=O)Nc2ccccc2O)c(-c2ccccc2)c(-c2ccc(F)cc2)n1CC[C@@H](O)C[C@@H](O)CC(=O)O [2‐OH ATV, 2‐hydroxyatorvastatin] in the same way.
303 ± 151 µmol/L

====

assay-comment: Plasma pharmacokinetics of ATV and metabolites in BDC and UCC dogs (LC-MS/MS)
Type: in vivo
condition-description: male, beagle, dog, po, 40 mg/kg, BDC dogs (n = 3), 40 mg/kg oral dose of ATV, ± standard deviation
readout: Cmax (nM)
API: value field is a number in nM; no unit string.

For the molecule CC(C)c1c(C(=O)Nc2ccccc2O)c(-c2ccccc2)c(-c2ccc(F)cc2)n1CC[C@@H](O)C[C@@H](O)CC(=O)O [2‐OH ATV, 2‐hydroxyatorvastatin] , what Cmax is on record?
352

Consider next the molecule CC(C)c1c(C(=O)Nc2ccc(O)cc2)c(-c2ccccc2)c(-c2ccc(F)cc2)n1CC[C@@H](O)C[C@@H](O)CC(=O)O [4‐OH ATV, 4‐hydroxyatorvastatin] in the same way.
138

====

assay-comment: Plasma pharmacokinetics of ATV and metabolites in BDC and UCC monkeys (LC-MS/MS)
Assay type: in vivo, cynomolgus macaques
condition-description: male, cynomolgus, cynomolgus monkey, plasma, po, 30 mg/kg, BDC monkeys (n = 4), 30 mg/kg oral dose of ATV, ± standard deviation
Would you kindly list Tmax for each of these compounds?
API: value field is a number in h; no unit string.

For the compound CC(C)c1c(C(=O)Nc2ccccc2O)c(-c2ccccc2)c(-c2ccc(F)cc2)n1CC[C@@H]1C[C@@H](O)CC(=O)O1 [2‐OH ATV‐L, 2‐hydroxyatorvastatin lactone] , what Tmax is on record?
4

Consider next the compound CC(C)c1c(C(=O)Nc2ccccc2O)c(-c2ccccc2)c(-c2ccc(F)cc2)n1CC[C@@H](O)C[C@@H](O)CC(=O)O [2‐OH ATV, 2‐hydroxyatorvastatin] in the same way.
9

====

assay-comment: Concentration of ATV and metabolites in monkey bile obtained by BDC and UCC (LC-MS/MS)
Assay type: in vivo, cynomolgus macaques
condition-description: BDC monkeys, 4‐6 h, 30 mg/kg ATV orally, ± standard deviation
readout: Concentration in bile (µM)
API: value field is a number in µM; no unit string.

For the compound CC(C)c1c(C(=O)Nc2ccccc2O)c(-c2ccccc2)c(-c2ccc(F)cc2)n1CC[C@@H](O)C[C@@H](O)CC(=O)O [2‐OH ATV, 2‐hydroxyatorvastatin] , what Concentration in bile is on record?
412

Consider next the compound CC(C)c1c(C(=O)Nc2ccc(O)cc2)c(-c2ccccc2)c(-c2ccc(F)cc2)n1CC[C@@H](O)C[C@@H](O)CC(=O)O [4‐OH ATV, 4‐hydroxyatorvastatin] in the same way.
207

Consider next the compound CC(C)c1c(C(=O)Nc2ccc(O)cc2)c(-c2ccccc2)c(-c2ccc(F)cc2)n1CC[C@@H]1C[C@@H](O)CC(=O)O1 [4‐OH ATV‐L, 4‐hydroxyatorvastatin lactone] in the same way.
4

Consider next the compound CC(C)c1c(C(=O)Nc2ccccc2O)c(-c2ccccc2)c(-c2ccc(F)cc2)n1CC[C@@H]1C[C@@H](O)CC(=O)O1 [2‐OH ATV‐L, 2‐hydroxyatorvastatin lactone] in the same way.
67

====

Would you kindly list AUC for each of these compounds?
assay-comment: Plasma pharmacokinetics of ATV and metabolites in BDC and UCC dogs (LC-MS/MS)
Assay type: in vivo
condition-description: male, beagle, dog, po, 40 mg/kg, BDC dogs (n = 3), 40 mg/kg oral dose of ATV, ± standard deviation, read-out: AUC0‐24h
API: value field is a number in µM·h; no unit string.

For the compound CC(C)c1c(C(=O)Nc2ccc(O)cc2)c(-c2ccccc2)c(-c2ccc(F)cc2)n1CC[C@@H](O)C[C@@H](O)CC(=O)O [4‐OH ATV, 4‐hydroxyatorvastatin] , what AUC is on record?
0.293

Consider next the compound CC(C)c1c(C(=O)Nc2ccccc2O)c(-c2ccccc2)c(-c2ccc(F)cc2)n1CC[C@@H](O)C[C@@H](O)CC(=O)O [2‐OH ATV, 2‐hydroxyatorvastatin] in the same way.
0.667

====

assay-comment: Concentration of ATV and metabolites in monkey bile obtained by BDC and UCC (LC-MS/MS)
Assay type: in vivo, cynomolgus macaques
condition-description: BDC monkeys, 0‐2 h, 30 mg/kg ATV orally, n = 2 due to blocked/displaced cannulas
Would you kindly list Concentration in bile for each of these compounds?
API: value field is a number in µM; no unit string.

For the compound CC(C)c1c(C(=O)Nc2ccccc2O)c(-c2ccccc2)c(-c2ccc(F)cc2)n1CC[C@@H](O)C[C@@H](O)CC(=O)O [2‐OH ATV, 2‐hydroxyatorvastatin] , what Concentration in bile is on record?
112

Consider next the compound CC(C)c1c(C(=O)Nc2ccccc2O)c(-c2ccccc2)c(-c2ccc(F)cc2)n1CC[C@@H]1C[C@@H](O)CC(=O)O1 [2‐OH ATV‐L, 2‐hydroxyatorvastatin lactone] in the same way.
36

Consider next the compound CC(C)c1c(C(=O)Nc2ccc(O)cc2)c(-c2ccccc2)c(-c2ccc(F)cc2)n1CC[C@@H]1C[C@@H](O)CC(=O)O1 [4‐OH ATV‐L, 4‐hydroxyatorvastatin lactone] in the same way.
2

Consider next the compound CC(C)c1c(C(=O)Nc2ccc(O)cc2)c(-c2ccccc2)c(-c2ccc(F)cc2)n1CC[C@@H](O)C[C@@H](O)CC(=O)O [4‐OH ATV, 4‐hydroxyatorvastatin] in the same way.
56

====

assay-comment: Plasma pharmacokinetics of ATV and metabolites in BDC and UCC dogs (LC-MS/MS)
Format: in vivo
condition-description: male, beagle, dog, po, 40 mg/kg, UCC dogs (n = 3), 40 mg/kg oral dose of ATV, ± standard deviation
Would you kindly list Cmax for each of these compounds?
API: value field is a number in nM; no unit string.

For the compound CC(C)c1c(C(=O)Nc2ccccc2O)c(-c2ccccc2)c(-c2ccc(F)cc2)n1CC[C@@H](O)C[C@@H](O)CC(=O)O [2‐OH ATV, 2‐hydroxyatorvastatin] , what Cmax is on record?
215

Consider next the compound CC(C)c1c(C(=O)Nc2ccc(O)cc2)c(-c2ccccc2)c(-c2ccc(F)cc2)n1CC[C@@H](O)C[C@@H](O)CC(=O)O [4‐OH ATV, 4‐hydroxyatorvastatin] in the same way.
82

Origin of the recorded values: paper PMC6536413
